Recorded CC50 at 72 h for the following compounds
# method_notes: Cytotoxicity against human Huh7.5 cells assessed as cell viability after 72 hrs by MTT assay
# Format: cell-based, Huh-7

| chemical_smiles | CC50 at 72 h |
| --- | --- |
| CNC(=O)/C(C)=C/c1c[nH]c2ccccc12 | > 10 µM |
| C/C(=C\c1c[nH]c2ccccc12)C(=O)NCCN(C)C | > 100 µM |
| C/C(=C\c1c[nH]c2ccc(C#N)cc12)C(=O)Nc1ccc(C)cc1 | > 100 µM |
| C/C(=C\c1c[nH]c2ccccc12)C(=O)O | > 100 µM |
| C/C(=C\c1c[nH]c2ccccc12)C(=O)NCCCn1ccnc1 | > 100 µM |
| CC(C)NC(=O)/C=C/c1c[nH]c2ccccc12 | > 100 µM |
